Biological target: rhNav1.7α (rhesus monkey, UniProt Q15858 1-1988 (human entry))
Experiment: cell-based or functional assay
quantity_measured: 2-pulse IC50 [M], P1 (M)

Recorded 2-pulse IC50 [M], P1, per entry:
>  <binder>
F010300684 (VHH, vs F0103275B05: S27P, I28V, I31W, N53P, N93R, T101I) VHH: EVQLVESGGGLVQPGGSLRLSCAASGPVFNWNSMAWYRRAPGKQRELVASSTPGGSTNYADSVKGRFTISRDNAKRVYLQMNSLTPEDTAVYYCRALLQPSIYDISRIYWGQGTLVTVSS

>  <recorded_measurement>
7e-06

$$$$
>  <binder>
F010300316 (VHH, vs F0103275B05: T57W) VHH: EVQLVESGGGLVQPGGSLRLSCAASGSIFNINSMAWYRRAPGKQRELVASSTNGGSWNYADSVKGRFTISRDNAKRVYLQMNSLTPEDTAVYYCNALLQPSIYDISRTYWGQGTLVTVSS

>  <recorded_measurement>
5e-06

$$$$
>  <binder>
F010300631 (VHH, vs F0103275B05: S27P, I28V, S50Y, N53P, N93R) VHH: EVQLVESGGGLVQPGGSLRLSCAASGPVFNINSMAWYRRAPGKQRELVAYSTPGGSTNYADSVKGRFTISRDNAKRVYLQMNSLTPEDTAVYYCRALLQPSIYDISRTYWGQGTLVTVSS

>  <recorded_measurement>
2e-06

$$$$
>  <binder>
F010300659 (VHH, also called F0103275B05(S27P, I28V, S50Y, N53P, G55W, S56D, T57W, N93R, A94W)+FLAG3-HIS6) VHH: EVQLVESGGGLVQPGGSLRLSCAASGPVFNINSMAWYRRAPGKQRELVAYSTPGWDWNYADSVKGRFTISRDNAKRVYLQMNSLTPEDTAVYYCRWLLQPSIYDISRTYWGQGTLVTVSS

>  <recorded_measurement>
1e-06

$$$$
>  <binder>
F010300468 (VHH, vs F0103275B05: N93R; also called F0103275B05(N93R)+FLAG3-HIS6; F103275B05(N93R)) VHH: EVQLVESGGGLVQPGGSLRLSCAASGSIFNINSMAWYRRAPGKQRELVASSTNGGSTNYADSVKGRFTISRDNAKRVYLQMNSLTPEDTAVYYCRALLQPSIYDISRTYWGQGTLVTVSS

>  <recorded_measurement>
6e-06

$$$$

(a) F0103387G04 (parental)-FLAG-HIS6 (VHH, also called F01033387G04) VHH: EVQLVESGGGLAQPGGSLRLSCAASGPVFNINKMAWYRRAPGKQRELVASVTPTGSISYTDSVKGRFTISRDGSKRWSLQMNSLTPEDTAVYYCNALLQPDSYSNTRTYWGQGTLVTVSS
(b) F010300477 (VHH, vs F0103275B05: A94W) VHH: EVQLVESGGGLVQPGGSLRLSCAASGSIFNINSMAWYRRAPGKQRELVASSTNGGSTNYADSVKGRFTISRDNAKRVYLQMNSLTPEDTAVYYCNWLLQPSIYDISRTYWGQGTLVTVSS
input: Please indicate which entry, a or b , has the lower recorded 2-pulse IC50 [M], P1 value. Give the chosen item's label as your response.
output: b

Every entry's value here was drawn from patent US20240002497A1.
